Details: Ebola virus entry assay, blue channel fluorescence
Activity calls are given as the source filed them. How the calls were made is not given here.
Give your call using only these classes: active, inactive

What outcome does the record of this test show for `COc1cc(CC#N)cc(OC)c1OC` ?
inactive

What outcome does the record of this test show for `COc1ccc2c(c1)c(CC(=O)O)c(C)n2C(=O)c1ccc(Cl)cc1` ?
inactive

What outcome does the record of this test show for `CC(=O)N1CCN(c2ccc(O)cc2)CC1` ?
inactive

***
What outcome does the record of this test show for `NC(=NCCCCCCN=C(N)/N=C(\N)Nc1ccc(Cl)cc1)/N=C(\N)Nc1ccc(Cl)cc1` ?
active

----------
Test: qHTS of pediatric cancer cell lines to identify multiple opportunities for drug repurposing: Primary screen for SK-N-MC cells (AID 1347093)
Settings: SK-N-MC viability, CellTiter-Glo luminescence, 48 h; series mostly up to 46 µM
Inconclusive results are not listed. Active and inactive are the calls of the source. Calls follow the shape of the dose curve; as a rule, active = well fitted cell-killing curve with a large enough effect; inconclusive = small, poorly fitted or top-dose-only effect; inactive = no such curve, though single readings can be large or run the other way.
Give your call using only these classes: yes (1) for active, no (0) for inactive

Look over these answered cases.
What outcome does the record of this test show for `COc1ccc2c(C(=O)c3ccc(Cl)cc3)c(C)n(CC(=O)O)c2c1` ?
yes (1)

What outcome does the record of this test show for `CC[n+]1c(-c2ccccc2)c2cc(N)ccc2c2ccc(N)cc21` ?
yes (1)

# ---- query compound ----
What outcome does the record of this test show for `O=C(CCCN1CCC(n2c(=O)[nH]c3ccccc32)CC1)c1ccc(F)cc1` ?
no (0)

----------
Conditions: Ebola virus entry assay, ratio channel
Calls of active or inactive are those of the source. No rule for the calls is given here.
Endpoint: AC50

Below, 7 compounds whose answers are already recorded.
GET /values?readout=AC50&item= `O=C(Nc1ccc(Cl)cc1)Nc1ccc(Cl)c(C(F)(F)F)c1`
8.91 µM (active)

GET /values?readout=AC50&item= `C/C(=C(/OCCOc1ccc(Cl)cc1)c1ccc(Cl)cc1Cl)n1ccnc1`
inactive

GET /values?readout=AC50&item= `CN(C)CCCSc1ccccc1NC(=O)/C=C/c1ccccc1`
12.6 µM (active)

GET /values?readout=AC50&item= `O=C(O)c1ccc(OCCN2CCCCC2)cc1`
inactive

GET /values?readout=AC50&item= `CN1CCC(N(Cc2cccs2)c2ccccc2)CC1`
3.16 µM (active)

GET /values?readout=AC50&item= `CCOC(=O)Cn1cccc1-c1nc(-c2ccc(OC)cc2)c(-c2ccc(OC)cc2)s1`
0.708 µM (active)

GET /values?readout=AC50&item= CCn1ccnc1CC1COc2ccccc2O1 (stereo not drawn)
inactive

Next compound, AC50 to be filled in.
GET /values?readout=AC50&item= `CC(C)[N+](C)(CCC(C(N)=O)(c1ccccc1)c1ccccc1)C(C)C`
inactive

----------
Details: Ebola virus entry assay, reporter ratio channel; Channel type: primary
Active and inactive are the calls of the source. How the calls were made is not given here.
Endpoint: AC50

GET /values?readout=AC50&item= `CCCCCCc1ccc(O)cc1O`
39.8 µM (active)

GET /values?readout=AC50&item= `C#C[C@]1(O)C=C[C@H]2[C@@H]3CCC4=CC(=O)CC[C@@H]4[C@H]3CC[C@@]21CC`
inactive

GET /values?readout=AC50&item= C=CCSCC1Nc2cc(Cl)c(S(N)(=O)=O)cc2S(=O)(=O)N1 (stereo not given)
inactive

GET /values?readout=AC50&item= `C[C@@H](O)[C@H]1C(=O)N2C(C(=O)O)=C([C@H]3CCCO3)S[C@H]12`
inactive

Next compound, AC50 to be filled in.
GET /values?readout=AC50&item= `Cc1c(N(C)C)c(=O)n(-c2ccccc2)n1C`
inactive
